Biological target: UniProtKB P21397
Sequence (P21397 whole entry): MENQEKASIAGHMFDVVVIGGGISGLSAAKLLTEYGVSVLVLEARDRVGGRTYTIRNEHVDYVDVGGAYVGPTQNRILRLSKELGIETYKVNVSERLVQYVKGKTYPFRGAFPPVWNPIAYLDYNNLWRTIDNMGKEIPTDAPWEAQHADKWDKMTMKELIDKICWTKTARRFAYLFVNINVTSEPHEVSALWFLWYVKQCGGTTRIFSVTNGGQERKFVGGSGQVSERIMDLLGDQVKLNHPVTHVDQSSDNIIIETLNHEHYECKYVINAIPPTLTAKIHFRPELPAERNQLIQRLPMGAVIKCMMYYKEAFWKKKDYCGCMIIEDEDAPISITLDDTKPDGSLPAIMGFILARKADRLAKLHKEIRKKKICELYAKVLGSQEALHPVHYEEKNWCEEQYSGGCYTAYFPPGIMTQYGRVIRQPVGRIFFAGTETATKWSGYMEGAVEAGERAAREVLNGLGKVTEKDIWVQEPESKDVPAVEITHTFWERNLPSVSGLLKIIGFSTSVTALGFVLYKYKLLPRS
pIC50: −log10 of the molar value.
Would you mind labelling by pIC50? At or over 5 is true, under is false.

Observe how each entry below is paired with its result.
O=C1C=CC(=O)c2ccccc21 [1,4-dihydronaphthalene-1,4-dione]
true
O=C1C(Cl)=C(Cl)C(=O)c2ccccc21
true
CC1=CC(=O)c2c(O)cccc2C1=O
true
COC1=CC(=O)c2ccccc2C1=O
false
CC(C)=CCC(O)C1=CC(=O)c2c(O)ccc(O)c2C1=O (configuration not stated)
true

Here is the next item to consider.
Asked: Form field: pIC50 at least 5? Entry: `O=C1C=CC(=O)c2c(O)cccc21`
Given back: true

Just for reference, BindingDB's records for doi:10.1111/cbdd.12708 is where these values come from.
